normalized growth overview
Test: chemical genetic growth profiling, strain panel (AID 1159580);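 further: tested at 20 µM; growth read once vehicle control cultures reached saturation at 30 °C; 1 = growth at the plate median or of vehicle wells; lower values mean less growth of the strain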
Details: S. cerevisiae deletion strains, growth OD, locus YOL136C, strain PFK27, hits give low values
Hit rate of the full screen: of about 5,500 compounds, about 2,000 (36%) were called active. Roughly 18% stayed inconclusive and do not appear here. This is one part of the list.
Respond with the number and no other words.

Smi	Result Number
CCOC(=O)N/N=C\c1cc(Cl)cc(Cl)c1O	0.784
O=C(NNc1ccc(F)cc1F)c1sccc1Cl	0.908
O=C1Nc2ccccc2/C1=C/c1ccc(C(F)(F)F)cc1Cl	0.93

Request: So what does the record say about normalized growth for O=C1Nc2ccccc2/C1=C\c1ccc(Cl)cc1 ?
Result: 0.833

Request: So what does the record say about normalized growth for COCCCNC(=S)N/N=C\c1cc(Br)ccc1O ?
Result: 0.982

Request: So what does the record say about normalized growth for Cc1ccc(NNC(=O)c2cccs2)cc1Cl ?
Result: 0.943

Request: So what does the record say about normalized growth for Cc1cc(Cl)ccc1NNC(=O)c1sccc1Br ?
Result: 0.825

---

normalized growth overview
Experiment: chemical genetic growth profiling, strain panel (AID 1159580)
Conditions: S. cerevisiae deletion strains, growth OD, locus YPR163C, strain tif3, hits give low values
Hit rate of the full screen: of about 5,500 compounds, about 2,000 (36%) were called active. Not shown: some 18% with an inconclusive outcome. Some of the results follow.

Compound	normalized growth
COC(=O)[C@@]1(C)CCC[C@]2(C)c3ccc(O)c(C(C)C)c3CCC12 (stereo partly drawn)	0.817 (active)

Request: So what does the record say about normalized growth for CC(C)c1c(O)ccc2c1CCC1[C@@](C)(C=O)CCC[C@]21C (stereo partly drawn) ?
Result: 0.345 (active)

Request: So what does the record say about normalized growth for C=C(C)[C@H]1COc2cc3oc(=O)ccc3cc2O1 ?
Result: 0.889 (active)

Request: So what does the record say about normalized growth for COc1ccc2ccc(=O)oc2c1 ?
Result: 1.02 (inactive)

Request: So what does the record say about normalized growth for CC(=O)[C@@]1(O)CCC2C3C[C@H](C)C4=CC(=O)C=CC4(C)[C@@]3(F)[C@@H](O)C[C@@]21C (stereo partly drawn) ?
Result: 1.01 (inactive)

---

Assay: chemical genetic growth profiling, strain panel (AID 1159580)
Conditions: S. cerevisiae deletion strains, growth OD, locus YIR030C, strain dcg1, hits give low values
About 2,000 (36%) of roughly 5,500 compounds were called active. About 18% were inconclusive and are not listed. The list shows a part of the results.
Attribute Measured: normalized growth
Respond with the number and no other words.

Compound	Result Number
CC1=CC(=O)C2=C(C)CC[C@@H]3[C@H](OC(=O)[C@H]3C)[C@@H]12	0.985
CCC(=O)c1c(O)cc(O)cc1O	0.979
O=c1c(O)c(-c2cc(O)c(O)c(O)c2)oc2cc(O)cc(O)c12	1
NC(=O)NCC(N)C(=O)O (stereo not given)	0.996
C[C@@H]1CC[C@@]2(OC1)OC1CC3C4CC=C5C[C@@H](O)CC[C@]5(C)C4CC[C@]3(C)C1[C@@H]2C (stereo not given in full)	0.96

Moving on to the next compound.
Request: So what does the record say about normalized growth for CC1CC[C@@]2(OC1)O[C@H]1CC3C4CC[C@@H]5CC(=O)CC[C@]5(C)C4CC[C@]3(C)[C@H]1[C@@H]2C (stereo not given in full) ?
Result: 0.98

---

Assay: chemical genetic growth profiling, strain panel (AID 1159580)
Settings: S. cerevisiae deletion strains, growth OD, locus YNL271C, strain bni1, hits give low values
The whole screen tested about 5,500 compounds, of which about 2,000 (36%) were called active. Another 18% or so got no clear call; they are omitted. Some of the results follow.
Lab note - cut at 1 for normalized growth: Satisfied if strictly below, Not satisfied if not.

Molecule	Cat
Cc1cc(C2CCCCC2)n(O)c(=O)c1	Satisfied
CC12CCC3c4ccc(OCc5ccccc5)cc4CCC3C1C[C@@H](O)[C@@H]2O (stereo partly drawn)	Satisfied

Moving on to another molecule below.
Request: Given the entry NC(N)=NC(=O)c1nc(Cl)c(N)nc1N , would its reported normalized growth be below 1?
Result: Not satisfied

---

Assay: chemical genetic growth profiling, strain panel (AID 1159580);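 further: tested at 20 µM; growth read once vehicle control cultures reached saturation at 30 °C; 1 = growth at the plate median or of vehicle wells; lower values mean less growth of the strain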
Conditions: S. cerevisiae deletion strains, growth OD, locus YOR270C, strain vph1
Among all 5,500 compounds or so, about 2,000 (36%) were called active. Roughly 18% stayed inconclusive and do not appear here. No stated cut-off is given here; in the data, active means normalized growth mostly below about 0.91 (no sharp cut-off); inconclusive means no clear call, values can overlap the other calls; inactive means mostly above about 0.92. Some of the results follow.
Your reply should match one of these outcome classes. active, inactive

Request: Recorded test outcome, item CC1O[C@@H](Oc2c(-c3ccc(O)c(O)c3)oc3cc(O)cc(O)c3c2=O)[C@H](O)[C@H](O)[C@H]1O (some centres not stated)
Result: inactive

---

Assay: chemical genetic growth profiling, strain panel (AID 1159580);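 further: tested at 20 µM; growth read once vehicle control cultures reached saturation at 30 °C; 1 = growth at the plate median or of vehicle wells; lower values mean less growth of the strain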
Conditions: S. cerevisiae deletion strains, growth OD, locus YLR330W, strain CHS5, hits give low values
Hit rate of the full screen: of about 5,500 compounds, about 2,000 (36%) were called active. About 18% were inconclusive and are not listed. Some of the results follow.
Lab note - cut at 1 for normalized growth: label 1 if strictly below, label 0 if not.

As a guide, the following entries are already answered.
Compound	Cat
C=C(C)[C@H]1COc2cc3oc(=O)ccc3cc2O1	label 1
COc1c(C(C)C)oc2cc3oc(=O)ccc3cc12	label 1

Moving on to another compound below.
Request: Given the entry CC(CC(O)C1OC1(C)C)[C@@H]1CCC2(C)C3=CCC4C(C)(C)C(=O)CCC4(C)C3CC[C@@]12C (some centres not stated) , would its reported normalized growth be below 1?
Result: label 0

---

normalized growth overview
Test: chemical genetic growth profiling, strain panel (AID 1159580);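 further: tested at 20 µM; growth read once vehicle control cultures reached saturation at 30 °C; 1 = growth at the plate median or of vehicle wells; lower values mean less growth of the strain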
Details: S. cerevisiae deletion strains, growth OD, locus YLL041C, strain sdh2, hits give low values
In all, about 5,500 compounds went through this assay and about 2,000 (36%) were called active. Inconclusive results (about 18%) are left out. The list shows a part of the results.

Some solved entries appear below for comparison.
Compound	Result
COc1ccc2c(c1)CCC1C2CC[C@@]2(C)C1CC[C@@H]2O (stereo partly drawn)	0.973 (inactive)
COc1cc(OC)c2c(=O)c(OC)c(-c3ccc(OC)c(OC)c3)oc2c1	1.01 (inactive)
COc1cc(OC)c2c(=O)c(O)c(-c3ccc(OC)c(OC)c3)oc2c1	0.933 (inactive)
CCC(=O)c1c(O)cc(O)cc1O	0.985 (inactive)
CCCCCc1c2c(cc(O)c1C(=O)O)OC(=O)c1c(cc(OC)cc1C(=O)CCCC)O2	0.986 (inactive)

Request: So what does the record say about normalized growth for COc1ccc(-c2oc3c(CC=C(C)C)c(O[C@@H]4O[C@H](CO)[C@@H](O)[C@H](O)[C@H]4O)cc(O)c3c(=O)c2O[C@@H]2O[C@@H](C)[C@H](O)[C@@H](O)[C@H]2O)cc1 ?
Result: 1.04 (inactive)

Request: So what does the record say about normalized growth for O=C1[O][Bi][O]c2ccccc21 ?
Result: 1.04 (inactive)

Request: So what does the record say about normalized growth for CC(C)c1c(O)c(-c2cc3c(c(C(C)C)c2O)CCC2C(C)(C)CCC[C@]32C)cc2c1CCC1C(C)(C)CCC[C@]21C (stereo partly drawn) ?
Result: 1.02 (inactive)

Request: So what does the record say about normalized growth for CC(C)c1c(O)ccc2c1CCC1[C@@](C)(CO)CCC[C@]21C (stereo partly drawn) ?
Result: 1.03 (inactive)

Request: So what does the record say about normalized growth for CN1C[C@H](C(=O)N[C@]2(C)O[C@@]3(O)[C@@H]4CCCN4C(=O)[C@H](Cc4ccccc4)N3C2=O)C[C@@H]2c3cccc4[nH]cc(c34)C[C@H]21 ?
Result: 0.997 (inactive)

Request: So what does the record say about normalized growth for CCOC(=O)c1c(C)cc(O)cc1O ?
Result: 0.917 (active)

Request: So what does the record say about normalized growth for COc1ccc(-c2cc(=O)c3c(O)cc(O[C@H]4O[C@H](CO[C@@H]5O[C@@H](C)[C@H](O)[C@@H](O)[C@H]5O)[C@@H](O)[C@H](O)[C@H]4O)cc3o2)cc1 ?
Result: 1.01 (inactive)

Request: So what does the record say about normalized growth for COC(=O)[C@@]1(C)CCC[C@]2(C)c3ccc(O)c(C(C)C)c3CCC12 (stereo partly drawn) ?
Result: 0.965 (inactive)

Request: So what does the record say about normalized growth for COC(=O)c1c(C)cc(OC)cc1O ?
Result: 1 (inactive)

Request: So what does the record say about normalized growth for C[C@]12CCC3c4ccc(O)cc4CCC3C1C[C@@H](O)[C@@H]2O (stereo partly drawn) ?
Result: 1.01 (inactive)

Request: So what does the record say about normalized growth for COc1cc(O)c2c(=O)c(O)c(-c3ccc(O)c(O)c3)oc2c1 ?
Result: 0.928 (inactive)

Request: So what does the record say about normalized growth for C[C@@H]1O[C@@H](OC[C@H]2OC(Oc3c(-c4ccc(OCCO)c(OCCO)c4)oc4cc(OCCO)cc(O)c4c3=O)[C@H](O)[C@@H](O)[C@@H]2O)[C@H](O)[C@H](O)[C@H]1O (stereo partly drawn) ?
Result: 0.959 (inactive)

Request: So what does the record say about normalized growth for COc1ccc2c(c1)CCC1C2CCC2(C)C1C[C@@H](O)C2O (stereo partly drawn) ?
Result: 0.982 (inactive)
